Test target: 5-hydroxytryptamine receptor 2A (Homo sapiens) (UniProt P28223)
Sequence (P28223 whole entry, looked up): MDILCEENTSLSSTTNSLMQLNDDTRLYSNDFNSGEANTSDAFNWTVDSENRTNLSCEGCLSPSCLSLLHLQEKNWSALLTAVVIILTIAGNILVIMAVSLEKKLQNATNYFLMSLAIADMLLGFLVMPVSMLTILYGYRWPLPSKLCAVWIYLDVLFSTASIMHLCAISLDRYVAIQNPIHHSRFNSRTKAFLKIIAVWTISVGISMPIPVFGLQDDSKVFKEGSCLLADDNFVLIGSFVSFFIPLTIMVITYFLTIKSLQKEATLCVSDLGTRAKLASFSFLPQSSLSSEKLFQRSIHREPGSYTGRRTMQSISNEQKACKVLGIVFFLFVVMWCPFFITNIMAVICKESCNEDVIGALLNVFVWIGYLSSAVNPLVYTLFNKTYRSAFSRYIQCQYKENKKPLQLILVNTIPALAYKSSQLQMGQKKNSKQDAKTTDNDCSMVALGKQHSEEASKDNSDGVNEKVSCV
Test details: 5-hydroxytryptamine receptor 2A (HTR2A) small molecule antagonists, cell-based qHTS assay (AID 1963586); also: nearly all actives have a fitted effect of over 45% in size
Setup conditions: HTR2A-CHO cells, DOI-induced calcium flux, fluorescence; series mostly up to 61.5 µM
Protocol: National Center for Advancing Translational Sciences [NCATS] Division of Preclinical Innovation [DPI] U.S. Environmental Protection Agency [EPA] National Institutes of Environmental Health Sciences [NIEHS] National Toxicology Program [NTP] […] HTR2A-CHO cells were dispensed at 2000 cells/3uL/well in 1536-well black-clear bottom plates using a Multidrop Dispenser. […] The fluorescence intensity in the plates was measured using FDSS 7000EX kinetic plate reader for 3 min at 1 sec intervals.
Results filed as inconclusive are left out. Activity calls are given as the source filed them. Calls follow the shape of the full dose curve.
Hi there, use one of these labels in your reply, thanks! active, inactive

Below are worked cases with known answers.
CCCCCCCC[Si](OCC)(OCC)OCC = inactive
Cc1cccc(C(=O)O)c1[N+](=O)[O-] = inactive

Q) Field: outcome | Entry: `OCCCO`
A) inactive

Q) Field: outcome | Entry: CC(Cl)C(Cl)Cl (stereo not drawn)
A) inactive

Q) Field: outcome | Entry: `CCCCCC(=O)OCCc1ccccc1`
A) inactive

Q) Field: outcome | Entry: `CN1CN(C)CN(C)C1`
A) inactive

Q) Field: outcome | Entry: `CC(C)C[C@@H]1[C@H](c2ccccc2)OC(=O)N1CCCN1CCCCCC1`
A) active

Q) Field: outcome | Entry: `O=C(O)c1cccc(Oc2ccccc2)c1`
A) inactive

====

Test details: Nuclear factor erythroid 2-related factor 2/antioxidant responsive element (Nrf2/ARE) small molecule agonists: luciferase reporter gene qHTS assay in human keratinocytes (AID 1919969); also: nearly all actives have a fitted effect of over 35% in size; also: potency is read from the fitted curve at half-maximal effect
Setup conditions: KeratinoSens HaCaT ARE-luciferase, luminescence, 24 h; series mostly up to 92.4 µM
Inconclusive results are not listed. Calls of active or inactive are those of the source. The call rests on the fitted dose curve.
Reported endpoint: Potency

Solved cases below.
CCCCCCCC(=O)Oc1c(Br)cc(C#N)cc1Br = inactive
CCCCOCCOC(=O)COc1ccc(Cl)cc1Cl = inactive
CN(C)CCCOc1nn(Cc2ccccc2)c2ccccc12 = inactive
C=C(C)C(=O)OC1CC(C)CC(C)(C)C1 (configuration not stated) = inactive
CC(C=O)Cc1ccc(C(C)C)cc1 (configuration not stated) = inactive

Entry `CC(C)(O)c1coc(S(=O)(=O)NC(=O)Nc2c3c(cc4c2CCC4)CCC3)c1` ; Potency = 61.1 µM (active)

Entry `CCCCCCCCSCc1cc(C)c(O)c(CSCCCCCCCC)c1` ; Potency = 61.1 µM (active)

====

Test details: p53 small molecule agonists, cell-based qHTS assay with rat liver microsomes (AID 1963578); also: % is scaled to controls: 0 for no effect and ±100 for the full control effect
Setup conditions: HCT-116 p53RE-bla, beta-lactamase ratio, 16 h; series mostly up to 66 µM
Results filed as inconclusive are left out. Calls of active or inactive are those of the source. Calls follow the shape of the full dose curve.
Reported endpoint: activation

NC(=O)c1cn(Cc2c(F)cccc2F)nn1 = inactive
O=c1cc[nH]cc1 = inactive
Cc1cc(CCCOc2c(C)cc(-c3noc(C(F)(F)F)n3)cc2C)on1 = inactive
NC(=O)C(c1ccccc1)(c1ccccc1)[C@@H]1CCN(CCc2ccc3c(c2)CCO3)C1 = inactive
CC(=O)CCCCn1c(=O)c2c(ncn2C)n(C)c1=O = inactive

Entry `CCCCN(CCCC)CCCOC(=O)c1ccc(N)cc1` ; activation = inactive

Entry CCC(C)(CCC(C)C)C(=O)[O][Sn]([CH3])([CH3])[O]C(=O)C(C)(CC)CCC(C)C (stereo not given) ; activation = inactive

Entry `C/C=C/C(=O)CC` ; activation = -0.406% [at 13.6 µM] (inactive)

Entry `O=C(O)Cn1c(C(=O)Nc2nc(-c3ccccc3Cl)cs2)cc2ccccc21` ; activation = inactive

Entry `O=C(NCCCN1CCOCC1)c1ccc(Cl)cc1` ; activation = inactive

Entry `CCCCCN=C(N)N/N=C/c1c[nH]c2ccc(OC)cc12` ; activation = inactive

Entry `COc1ccc(CN2CCN(C(c3ccc(F)cc3)c3ccc(F)cc3)CC2)c(OC)c1OC` ; activation = inactive

Entry `CCCCCCC/C=C/C=O` ; activation = inactive

Entry `O=C(CO)[C@@H](O)[C@H](O)[C@H](O)CO` ; activation = inactive

Entry `COC(=O)/C=C\C(=O)O` ; activation = inactive

Entry `CO[C@@]1(NC(=O)CSCC#N)C(=O)N2C(C(=O)O)=C(CSc3nnnn3C)CS[C@@H]21` ; activation = inactive

Entry CC(C)NCC(O)COc1ccc(COCCOC(C)C)cc1 (stereo not given) ; activation = inactive

Entry `NCCS` ; activation = inactive

Entry `CC(C)CCCCCCc1ccc(OCCOCCO)cc1` ; activation = inactive

Entry CCN(CC)C(=O)Nc1ccc(OCC(O)CNC(C)(C)C)c(C(C)=O)c1 (stereo not given) ; activation = inactive

Entry `CC1=NS(=O)(=O)c2cc(Cl)ccc2N1` ; activation = inactive

Entry `Nc1cccc(S(=O)(=O)c2cccc(N)c2)c1` ; activation = inactive

Entry `CCCCS(=O)(=O)N[C@@H](Cc1ccc(OCCCCC2CCNCC2)cc1)C(=O)O` ; activation = inactive

Entry `CC1(C)CC(OC(=O)CCCCCCCCC(=O)OC2CC(C)(C)NC(C)(C)C2)CC(C)(C)N1` ; activation = 0.45% [at 13.6 µM] (inactive)

Entry `C=CCCCCCCCCC(=O)OCC` ; activation = inactive
